Assay System: T1, horse serum albumin (horse, UniProt P35747 25-607)
T1 construct: mature; also called horse Alb; Equine albumin
T1 sequence (P35747 25-607): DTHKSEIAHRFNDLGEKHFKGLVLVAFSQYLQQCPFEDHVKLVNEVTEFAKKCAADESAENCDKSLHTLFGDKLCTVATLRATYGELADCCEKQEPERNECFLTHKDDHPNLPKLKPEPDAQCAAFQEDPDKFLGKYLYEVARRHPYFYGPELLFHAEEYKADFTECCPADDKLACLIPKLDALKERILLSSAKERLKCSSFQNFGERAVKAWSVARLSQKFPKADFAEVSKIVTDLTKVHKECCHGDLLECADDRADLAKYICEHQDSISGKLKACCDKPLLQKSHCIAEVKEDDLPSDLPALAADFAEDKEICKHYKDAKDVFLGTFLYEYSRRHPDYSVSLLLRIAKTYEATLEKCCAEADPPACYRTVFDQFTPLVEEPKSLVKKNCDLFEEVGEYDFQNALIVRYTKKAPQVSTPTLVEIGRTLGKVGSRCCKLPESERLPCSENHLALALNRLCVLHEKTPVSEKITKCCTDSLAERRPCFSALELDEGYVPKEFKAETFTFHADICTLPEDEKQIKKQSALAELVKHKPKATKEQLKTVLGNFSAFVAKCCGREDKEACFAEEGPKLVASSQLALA
Method: ELISA, coated albumin, E. coli supernatant; further: test concentration or dose not given here
// absorbance at 450 nm lookup, one value per entry
Units required after the number.

In the examples that follow, each entry is paired with its recorded absorbance at 450 nm.
SVA16 (VHH, not shown: large carriers) VHH: QVQLQESGGGVVQAGGSLRLSCAASGRTVSSSAMGWFRLAPGKEREFVVGISRSGGSIFYADSVKGRFTISRKNAKNTVDLQMNSLKPEDTAVYYCAAGYRPGYGDYGRVFYREDEYDDWGQGTQVTVSS; 2.11 A450
SVA06 (VHH) VHH: QVQLQESGGRLVQAEDSLRLSCAASGRTFVSYDMGWFRQAPGKEREFVAAINWRGYTTDYVDSVKGRFFISRDIAKSTVYLQMNNLKPEDTAVYYCAARQMSGSSRYSPPGRVGYDFWGQGTQVTVSS; 1.66 A450
SVA07 (VHH, not shown: large carriers) VHH: QVQLQQSGGGLVQAGDSLRLSCAASGRAFNYYTMGWFRQAPGKEREFVAKIYWDGGSTIYADSVKGRFTISIDNAKNTVYLQMNSLKPEDTAVYYCAADPSFYPFRPKYWGQGTQVTVSS; 1.46 A450

Now take the following binder into account.
Req: Record request: absorbance at 450 nm value, item SVA02 (VHH, not shown: large carriers) VHH: QVQLQQSGGGLVQAGGSLRLSCAASGRFFSRQVMGWFRQAPGKDREFVGVISWDNGVTFYSDSVKGRFTMSREIAKKTVHLQMNSLKPEDTAVYYCAAGNALHSRYYSPSKYDYWGPGTQVTVSS
Resp: 1.9 A450
